# Read-out: sulfotransferase 2A1 (SULT2A1), SULT2A1 (gene 6822)
# Test summary: LTEA_HepaRG_SULT2A1: Life Technologies and Expression Analysis (LTEA) Assay for sulfotransferase 2A1 (SULT2A1) using HepaRG (AID 2283531)
# Condition: mRNA level, 48 h; actives raise or lower the signal
Calls of active or inactive are those of the source. The calls were made as follows: active = hit-call score of the fitted dose curve at least 0.9, where 1 is the maximum; inactive = score below 0.9.
Assign a class; possible classes are Yes = active, No = inactive

CC(C)(C)c1cccc(C(C)(C)C)c1O    No
C=C(C)C(=O)OCCC(F)(F)C(F)(F)C(F)(F)C(F)(F)C(F)(F)C(F)(F)F    No
CCCOc1sc(C(=O)N2CCC(c3cc(CN)ccc3F)CC2)c(C)c1Br    No
CCCCOCCO    No
CCCCCCC(=O)O    No

Next up:
Just curious, what result did CC#C[C@]1(O)CC[C@H]2[C@@H]3CCC4=CC(=O)CCC4=C3[C@@H](c3ccc(N(C)C)cc3)C[C@@]21C get here?
Yes

* * *

# Test summary: BSK_4H_Eotaxin3: BioMAP Diversity Plus: 4H Assay for Eotaxin 3 Biomarker Activity (AID 2283000)
# Condition: primary human endothelial cells (HUVEC); actives raise or lower the signal
The source made the active and inactive calls. The calls were made as follows: active = hit-call score of the fitted dose curve at least 0.9, where 1 is the maximum; inactive = score below 0.9.
Assign a class; possible classes are TRUE for active, FALSE for inactive

COc1ccc([N+](=O)[O-])cc1N    FALSE

Just curious, what result did CCOC(=O)CC(O)(CC(=O)OCC)C(=O)OCC get here?
FALSE

How about this compound: NCC(F)(F)C(F)(F)C(F)(F)C(F)(F)C(F)(F)C(F)(F)C(F)(F)F
FALSE

How about this compound: CC[C@H](c1ccc(O)cc1)[C@@H](CC)c1ccc(O)cc1
TRUE

How about this compound: CCCCC(CC)COC(=O)CCCCC(=O)OCC(CC)CCCC (stereo unspecified)
FALSE

How about this compound: CCCCCCCCCCCCCC[N+](C)(C)C
TRUE

* * *

# Read-out: growth arrest and DNA damage 45 (GADD45B), GADD45B (gene 4616)
# Test summary: LTEA_HepaRG_GADD45B: Life Technologies and Expression Analysis (LTEA) Assay for growth arrest and DNA damage 45 (GADD45B) using HepaRG (AID 2283461)
# Condition: mRNA level, 48 h; actives raise or lower the signal
Activity calls are given as the source filed them. The calls were made as follows: active = hit-call score of the fitted dose curve at least 0.9, where 1 is the maximum; inactive = score below 0.9.
Assign a class; possible classes are 1.0 = active, 0.0 = inactive

Look over these answered cases.
O=C(O)Cc1cc(I)c(Oc2cc(I)c(O)c(I)c2)c(I)c1    1.0
CC(=O)NC1(c2cccc(F)c2)CCN(CC[C@@]2(c3ccc(Cl)c(Cl)c3)CN(c3ccccc3)C(=O)CO2)CC1    0.0
CCN(CC)CCNc1ccc(CNC=O)c2sc3ccc(OC)cc3c(=O)c12    1.0

Just curious, what result did OCCC(F)(F)C(F)(F)C(F)(F)C(F)(F)C(F)(F)C(F)(F)C(F)(F)C(F)(F)F get here?
0.0

How about this molecule: Nc1cccc2c(N)cccc12
0.0

How about this molecule: C#C[C@]1(O)CC[C@H]2[C@@H]3CCC4=CC(=O)CC[C@@H]4[C@H]3CC[C@@]21C
0.0

* * *

# Test summary: BSK_CASM3C_SRB: Viability Assessment in the BioMAP Diversity Plus: CASM3C Assay (AID 2283050);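 also: total protein by SRB staining as cytotoxicity measure in parallel cultures; cells exposed to compound for 24 h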
# Condition: primary human coronary artery smooth muscle cells
Active and inactive are the calls of the source. The calls were made as follows: active = hit-call score of the fitted dose curve at least 0.9, where 1 is the maximum; inactive = score below 0.9.
Assign a class; possible classes are yes (active), no (inactive)

Look over these answered cases.
OC1CCC(C2CCCCC2)CC1 (configuration not stated)    no
ClC1=C(Cl)C(Cl)(Cl)C(Cl)=C1Cl    yes
O=c1c(-c2ccc(O)cc2)coc2cc(O)ccc12    no

Just curious, what result did C#C[C@]1(O)CC[C@H]2[C@@H]3CCC4=CC(=O)CC[C@@H]4[C@H]3CC[C@@]21C get here?
no

How about this molecule: NC(=O)N1C(=O)C(C(=O)c2cc(Cl)cs2)c2cc(F)c(Cl)cc21 (configuration not stated)
yes

How about this molecule: c1ccc2c(c1)Cc1ccccc1-2
no

Ref: PubChem BioAssay (EPA / NIEHS)
